// data source = ChEMBL document CHEMBL1133607

Target: Kappa-type opioid receptor (Cavia porcellus, UniProt P41144)
Sequence (P41144 whole entry): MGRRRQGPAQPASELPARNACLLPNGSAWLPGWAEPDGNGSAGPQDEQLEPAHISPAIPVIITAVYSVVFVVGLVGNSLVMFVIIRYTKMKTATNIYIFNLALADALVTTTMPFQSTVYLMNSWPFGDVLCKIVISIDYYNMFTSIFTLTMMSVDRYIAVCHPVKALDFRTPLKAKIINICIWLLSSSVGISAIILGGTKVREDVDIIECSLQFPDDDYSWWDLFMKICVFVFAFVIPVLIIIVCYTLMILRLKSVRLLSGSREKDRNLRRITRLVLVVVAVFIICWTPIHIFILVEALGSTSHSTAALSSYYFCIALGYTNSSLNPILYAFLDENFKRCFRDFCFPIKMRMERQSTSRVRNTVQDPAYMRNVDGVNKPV
pKi: −log10 of the molar value.
Overview of reported pKi across a group of compounds:
metric: pKi

>>> print(df.to_string())
                                   compound  recorded_result
0  CC(C)CC(NC(=O)CNC(=O)[C@]1(c2ccccc2)CC1CN1CC[C@@]2(C)c3cc(O)ccc3CC1C2C)C(=O)NCCCCCN (some centres not stated)             6.61
1  CCCC(=N)NCCCCNC(=O)C(CC(C)C)NC(=O)CNC(=O)[C@]1(c2ccccc2)CC1CN1CC[C@@]2(C)c3cc(O)ccc3CC1C2C (some centres not stated)             7.17
2  CCC(=N)NCCCNC(=O)C(CC(C)C)NC(=O)CNC(=O)[C@]1(c2ccccc2)CC1CN1CC[C@@]2(C)c3cc(O)ccc3CC1C2C (some centres not stated)             6.59
3  CCC(=N)NCCCNC(=O)C(CC(C)C)NC(=O)[C@]1(c2ccccc2)CC1CN1CC[C@@]2(C)c3cc(O)ccc3CC1C2C (some centres not stated)             6.59
4  CC(C)CC(NC(=O)CNC(=O)[C@]1(c2ccccc2)CC1CN1CC[C@@]2(C)c3cc(O)ccc3CC1C2C)C(=O)NCCCCCCNC(=N)N (some centres not stated)             7.45
5  CC(C)CC(NC(=O)CNC(=O)[C@]1(c2ccccc2)CC1CN1CC[C@@]2(C)c3cc(O)ccc3CC1C2C)C(=O)NCCCN (some centres not stated)             6.55
6  CC(C)CC(NC(=O)CNC(=O)[C@]1(c2ccccc2)CC1CN1CC[C@@]2(C)c3cc(O)ccc3CC1C2C)C(=O)NCCCCCCN (some centres not stated)             7.10
